Ref: patent US10975042B2

test: Long-term storage stability of NCA, purity by DSC; format: physicochemical; conditions: storage at 0 to 5° C., 1 month; DSC
TEST_READOUT: Purity after 1 month from purification (mol %)

Exercise: Which measured Purity after 1 month from purification value corresponds to CC(=O)OCCCC1NC(=O)OC1=O (stereo not shown) [(C)] ?
Solution: 99.22

Exercise: Can you check O=C1CCNC(=O)O1 [(Q)] next?
Solution: 99.31

Exercise: Can you check O=C1CCCNC(=O)O1 [(R)] next?
Solution: 99.05

Exercise: Can you check CC(C)CC1NC(=O)OC1=O (stereo not shown) [(P)] next?
Solution: 98.93

Exercise: Can you check CN1CC(=O)OC1=O [(K)] next?
Solution: 98.93

Exercise: Can you check O=C1CNC(=O)O1 [(J)] next?
Solution: 99.12

Exercise: Can you check CC(C)(C)OCCCC1NC(=O)OC1=O (stereo not shown) [(F)] next?
Solution: 99.12
